Reported DC50 values follow for various compounds
Target: TYK2 (Homo sapiens)
Construct: Degradation of TYK2 in cells was quantitatively measured using Meso Scale Discovery (MSD) technology; endogenous in cells; host or cells: OCI-LY10
Sequence (P29597 whole entry): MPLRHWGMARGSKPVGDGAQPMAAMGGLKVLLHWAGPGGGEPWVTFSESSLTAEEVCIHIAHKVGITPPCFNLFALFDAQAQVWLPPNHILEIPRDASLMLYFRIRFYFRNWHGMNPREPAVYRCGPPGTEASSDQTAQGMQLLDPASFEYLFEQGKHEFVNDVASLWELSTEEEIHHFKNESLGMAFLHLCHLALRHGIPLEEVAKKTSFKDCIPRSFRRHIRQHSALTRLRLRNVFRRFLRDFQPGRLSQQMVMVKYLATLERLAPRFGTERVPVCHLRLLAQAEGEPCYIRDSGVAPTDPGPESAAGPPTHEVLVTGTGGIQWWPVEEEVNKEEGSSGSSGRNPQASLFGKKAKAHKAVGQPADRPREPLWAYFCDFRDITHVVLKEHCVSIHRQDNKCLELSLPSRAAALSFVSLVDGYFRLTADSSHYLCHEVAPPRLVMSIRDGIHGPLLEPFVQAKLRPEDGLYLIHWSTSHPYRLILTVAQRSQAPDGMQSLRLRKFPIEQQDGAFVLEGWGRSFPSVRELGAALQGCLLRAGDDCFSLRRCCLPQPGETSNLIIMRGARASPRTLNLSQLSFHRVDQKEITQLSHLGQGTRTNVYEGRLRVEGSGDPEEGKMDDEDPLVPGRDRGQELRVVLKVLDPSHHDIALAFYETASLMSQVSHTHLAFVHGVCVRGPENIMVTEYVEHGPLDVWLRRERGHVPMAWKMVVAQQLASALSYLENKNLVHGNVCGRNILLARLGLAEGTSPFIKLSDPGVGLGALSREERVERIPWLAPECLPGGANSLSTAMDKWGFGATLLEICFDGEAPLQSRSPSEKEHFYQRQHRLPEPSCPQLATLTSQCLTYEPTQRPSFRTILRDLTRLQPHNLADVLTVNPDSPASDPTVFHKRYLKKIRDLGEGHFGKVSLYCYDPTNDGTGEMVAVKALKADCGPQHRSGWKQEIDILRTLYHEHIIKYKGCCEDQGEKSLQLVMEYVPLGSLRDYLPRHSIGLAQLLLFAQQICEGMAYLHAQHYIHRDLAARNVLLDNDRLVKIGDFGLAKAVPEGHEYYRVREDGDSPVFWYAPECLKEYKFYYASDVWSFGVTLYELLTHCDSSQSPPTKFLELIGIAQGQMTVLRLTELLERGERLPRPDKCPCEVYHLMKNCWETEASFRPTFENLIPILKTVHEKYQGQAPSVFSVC
Assay: TYK2 MSD degradation in OCI-LY10 cells
Assay type: cell-based
Details: TYK2 degradation in OCI-LY10 cells, 4 to 24 hours incubation, read-out: TYK2 MSD OCI-LY10 Rel-DC50

Compound: CNC(=O)c1cnc(Nc2ccc(C(=O)NCCOCCOCCOCCOCCN(C(=O)[C@H]3CCCN(c4cncc5ccccc45)C3)c3ccc(=O)n(CC(=O)OC)c3)cn2)cc1Nc1cccc(-c2ncccn2)c1OC
Assayed System: TYK2 (Homo sapiens)
DC50: > 100 nM

Compound: CNc1cc(N2CCc3c(-c4ncc(CN5CC6(CCN(C(=O)c7cc(N8CCC(=O)NC8=O)c(OC)cc7C)CC6(F)F)C5)cc4F)cccc32)nn2c(C(=O)N[C@@H]3CC[C@H]3OC)cnc12
Assayed System: TYK2 (Homo sapiens)
DC50: < 1 nM

Compound: CNc1cc(N2CCc3c(-c4ncc(CN5CC6(CCN(C(=O)c7cc(C)c(Cl)c(N8CCC(=O)NC8=O)c7)CC6(F)F)C5)cc4F)cccc32)nn2c(C(=O)NC3CCC3)cnc12
Assayed System: TYK2 (Homo sapiens)
DC50: < 10 nM

Compound: CNc1cc(N2CCc3c(CN4CCC(N5CCC6(CCN(C(=O)c7ccc(Cl)c(N8CCC(=O)NC8=O)c7)C6)C5)C(F)(F)C4)cccc32)nn2c(C(=O)N[C@@H]3C[C@@H]3F)cnc12 (stereo partly shown)
Assayed System: TYK2 (Homo sapiens)
DC50: < 1 nM

Compound: CNc1cc(N2CCc3c(-c4ncc(CN5CC6(CCN(C(=O)c7cc(N8CCC(=O)NC8=O)c(F)cn7)CC6(F)F)C5)cc4F)cc(F)cc32)nn2c(C(=O)N[C@@H]3C[C@@H]3F)cnc12
Assayed System: TYK2 (Homo sapiens)
DC50: < 10 nM

Compound: CNc1cc(N2CCc3c2cccc3C23CC(CN4CCN(C5CCN(C(=O)c6ccc(Cl)c(N7CCC(=O)NC7=O)c6)CC5)CC4)(C2)C3)nn2c(C(=O)N[C@@H]3C[C@@H]3F)cnc12
Assayed System: TYK2 (Homo sapiens)
DC50: < 1 nM

Compound: CNc1cc(N2CCc3c(-c4ccc(CN5CCC6(CCN(C(=O)c7ccc(Cl)c(N8CCC(=O)NC8=O)c7)CC6)C(F)(F)C5)cn4)cccc32)nn2c(C(=O)NC3CCC3)cnc12
Assayed System: TYK2 (Homo sapiens)
DC50: < 10 nM

Compound: CNc1cc(N2CCc3c(C4CCCN(CC5CN(c6ccc7c(c6)n(C)c(=O)n7C6CCC(=O)NC6=O)C5)C4)cccc32)nn2c(C(=O)NC3CC3)cnc12 (stereo not shown)
Assayed System: TYK2 (Homo sapiens)
DC50: < 1 nM

Compound: CNc1cc(N2CCc3c(CN4CCC(N5CCN(c6ccc7c(c6)n(C)c(=O)n7C6CCC(=O)NC6=O)CC5)C(F)(F)C4)cccc32)nn2c(C(=O)NC3CC3)cnc12 (stereo not shown)
Assayed System: TYK2 (Homo sapiens)
DC50: < 1 nM

Compound: CNc1cc(N2CCc3c(CN4CC[C@@H](N5CCC6(CCN(C(=O)c7cc(Cl)c(Cl)c(N8CCC(=O)NC8=O)c7)CC6)CC5)C(F)(F)C4)cccc32)nn2c(C(=O)N[C@@H]3CC[C@H]3OC)cnc12
Assayed System: TYK2 (Homo sapiens)
DC50: < 1 nM
